Hello, the source for this data is paper PMC10726135, in case you need it.

Target: HNF4alpha2 (COS-7 nuclear extract) (Homo sapiens, UniProt P41235 1-474)
Sequence: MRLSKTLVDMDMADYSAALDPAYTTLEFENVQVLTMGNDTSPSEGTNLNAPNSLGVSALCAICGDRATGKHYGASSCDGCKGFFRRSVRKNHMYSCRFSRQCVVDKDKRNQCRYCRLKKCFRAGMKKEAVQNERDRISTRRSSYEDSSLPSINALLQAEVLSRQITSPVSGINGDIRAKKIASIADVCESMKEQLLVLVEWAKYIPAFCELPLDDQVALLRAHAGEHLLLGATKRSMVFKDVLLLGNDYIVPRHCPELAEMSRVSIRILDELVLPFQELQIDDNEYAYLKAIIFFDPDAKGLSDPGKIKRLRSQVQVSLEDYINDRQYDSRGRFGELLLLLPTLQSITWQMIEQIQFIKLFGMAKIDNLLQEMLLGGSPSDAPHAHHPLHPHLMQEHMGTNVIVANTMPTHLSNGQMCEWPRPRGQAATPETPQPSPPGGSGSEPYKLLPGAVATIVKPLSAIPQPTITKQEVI
Assay: protein-binding microarray; COS-7 nuclear extract on double-stranded Agilent 4x180k PBM; binding buffer, salt, pH and temperature not given in the material; high values mean tight binding
Details: chain copies: 2; label: 3' end of strand 1 on the slide; dsDNA, one strand shown
Whole data set: some 18,000 sequences, median “log2 normalized intensity” near 0.39, cut for the highest 2% near 6.6. This excerpt belongs to a sample that is enriched for the highest values.
Each item that follows carries a reported binding signal.
MEASUREMENT_LABEL: binding signal (log2 normalized intensity)

>>> df
                             sequence_entry  result
0  TATCCCTGGAGCCTTAGAAGATGACCTTTTGCCTAGGGAGATTAGAGTATCGGTCGA    5.59
1  CTTACTCTCTCCCTCCTCCTTTTTTTCCCCGCCTAGGGAGATTAGAGTATCGGTCGA    2.98
2  TGCAGTATGCCCCCCCACCCCACACACACAGCCTAGGGAGATTAGAGTATCGGTCGA     6.7
3  GAGAAGTTGCTCTTTACACCATTGCAAGGAGCCTAGGGAGATTAGAGTATCGGTCGA  -0.941
4  CTTTCTCCTCCCCTCCCCTCCCCCCACTCAGCCTAGGGAGATTAGAGTATCGGTCGA    6.94
5  TTAGATCAGAGGTCTAATTCCCAAGGGTATGCCTAGGGAGATTAGAGTATCGGTCGA  -0.435
